Listed here: items and their measured T/C.
- System: L1210 leukemia ip in BDF1 mice, survival T/C
- test: NCI In Vivo Anticancer Drug Screen. Data for tumor model L1210 Leukemia (intraperitoneal) in B6D2F1 (BDF1) mice
- details: endpoint: mean survival time; dose: 400.0 mg/kg/injection; schedule: Q01DX001 (ip); vehicle: saline; higher = longer survival
Toxic doses and inconclusive results are not listed.

Worked examples follow.
Exam item: Field request: T/C | item: "c1ccc(-n2nnnc2-c2nnnn2-c2ccccc2)cc1"
Marked response: 101 % of control

Exam item: Field request: T/C | item: "O=c1cc(/C=N\Nc2ccc([N+](=O)[O-])cc2)[nH]c(=O)[nH]1"
Marked response: 90 % of control

Exam item: Field request: T/C | item: "CC(=O)c1cccc(OC(=O)c2ccccc2)c1"
Marked response: 104 % of control

Exam item: Field request: T/C | item: "CC(C)(CO)N=Cc1ccccc1Br"
Marked response: 90 % of control

Exam item: Field request: T/C | item: "O=C(OC12CCCCC(CCCC1)O2)c1ccc([N+](=O)[O-])cc1"
Marked response: 98 % of control

Exam item: Field request: T/C | item: CCCCN(CCCC)CC(O)c1cc(-c2ccc(Cl)c(Cl)c2)nc2c(Cl)cc(Cl)cc12 (centres undefined)
Marked response: 94 % of control

Exam item: Field request: T/C | item: COc1ccc(NP2(=O)OCC(C)([N+](=O)[O-])CO2)cc1 (centres undefined)
Marked response: 96 % of control

Exam item: Field request: T/C | item: "COc1cc(NC(=O)c2ccc(C(=O)Nc3cc(OC)cc4cccnc34)cc2)c2ncccc2c1"
Marked response: 103 % of control

Exam item: Field request: T/C | item: OCC(O)C(O)C(O)C(O)C(O)CO (centres undefined)
Marked response: 95 % of control

Exam item: Field request: T/C | item: "Cc1nnc2ccnn2c1C"
Marked response: 100 % of control

Next:
Exam item: Field request: T/C | item: COc1ccc(C2=NC(=O)C(C(=O)c3ccccc3)O2)cc1 (centres undefined)
Marked response: 96 % of control

Exam item: Field request: T/C | item: CCSCC1OC(n2cnc3c(N)ncnc32)CC1O (centres undefined)
Marked response: 92 % of control

Exam item: Field request: T/C | item: "CC(=O)Oc1ccc(C2(c3ccc(OC(C)=O)cc3)C(=O)Nc3ccccc32)cc1"
Marked response: 87 % of control

Exam item: Field request: T/C | item: "COC(=O)/C=C(\C)Nc1ccc(-c2ccccc2)cc1"
Marked response: 92 % of control

Exam item: Field request: T/C | item: "CC1=NN(c2ccc(S(=O)(=O)O)cc2)C(=O)/C1=C/C(C#N)C#N"
Marked response: 108 % of control

Exam item: Field request: T/C | item: "CC(C)(Cl)C(N)=O"
Marked response: 97 % of control

Exam item: Field request: T/C | item: "CCN1C(=O)c2ccccc2C1=O"
Marked response: 88 % of control

Exam item: Field request: T/C | item: "CC(=O)/C(C)=N/O"
Marked response: 96 % of control

Exam item: Field request: T/C | item: "NC(N)=NC(N)=NCc1ccc(S(N)(=O)=O)cc1"
Marked response: 103 % of control
